test system: HTLV-1 LTR promoter transactivation by HTLV-1 Tax; assay: Transactivation assay, HTLV-1 LTR luciferase reporter with HTLV-1 Tax; type: cell-based; conditions: HEK293 cells co-transfected with pHTLV1LTR-Luc, HTLV-1 Tax and the human ORF; relative luciferase activity 24 h post-transfection; positive if >=2 or <=0.5 and p<0.05
PROPERTY_LABEL: HTLV_LTR transactiv. (fold change)
Please respond with the number in fold change and leave the unit unwritten.

[[record]]
molecule = "DHRS10: human host interactor protein, Gene ID 51171, expressed from transfected ORF vector (protein) MATGTRYAGKVVVVTGGGRGIGAGIVRAFVNSGARVVICDKDESGGRALEQELPGAVFILCDVTQEDDVKTLVSETIRRFGRLDCVVNNAGHHPPPQRPEETSAQGFRQLLELNLLGTYTLTKLALPYLRKSQGNVINISSLVGAIGQAQAVPYVATKGAVTAMTKALALDESPYGVRVNCISPGNIWTPLWEELAALMPDPRATIREGMLAQPLGRMGQPAEVGAAAVFLASEANFCTGIELLVTGGAELGYGCKASRSTPVDAPDIPS"
unit_text = "fold change"
measurement = 0.41


Now for the molecule whose HTLV_LTR transactiv. we want.
The molecule listed as RNPS1: human host interactor protein, Gene ID 10921, expressed from transfected ORF vector (protein) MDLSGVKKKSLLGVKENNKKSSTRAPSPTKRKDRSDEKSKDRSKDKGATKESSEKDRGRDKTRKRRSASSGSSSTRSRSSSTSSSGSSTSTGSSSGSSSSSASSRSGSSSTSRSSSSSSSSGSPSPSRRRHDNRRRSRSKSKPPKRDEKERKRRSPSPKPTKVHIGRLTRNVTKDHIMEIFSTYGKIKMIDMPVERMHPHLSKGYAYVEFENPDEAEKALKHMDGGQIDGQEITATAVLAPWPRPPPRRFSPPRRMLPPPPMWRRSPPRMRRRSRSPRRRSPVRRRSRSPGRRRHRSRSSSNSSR shows HTLV_LTR transactiv. equal to 11.12
